- experiment-description: ENVRES-PRE-002 ocular pharmacokinetics after intravitreal injection
- Type: in vivo, New Zealand White rabbits
- condition-parameters: male, New Zealand White, topical or ocular, 0.0407 mg; retina/choroid, Group 5 (ENV-1R-0119-33-7, 40.7 μg/eye), rabbit
readout: Cmax (ng/g)
Number only, in ng/g; omit the unit.

If you can, please state the reported Cmax value of CC1(C)O[C@@H]2C[C@H]3[C@@H]4C[C@H](F)C5=CC(=O)C=C[C@]5(C)[C@@]4(F)[C@@H](O)C[C@]3(C)[C@]2(C(=O)CO)O1 [fluocinolone acetonide] . 3950

----------
- experiment-description: ENVRES-PRE-002 ocular pharmacokinetics after intravitreal injection
- Type: in vivo, New Zealand White rabbits
- condition-parameters: male, New Zealand White, topical or ocular, 0.27 mg; vitreous humor, Group 4 (ENV-1R-0119-7-5, 6 implants, 270 μg/eye), rabbit
readout: Cmax
Answer by giving the amount and then stating its unit.

If you can, please state the reported Cmax value of C[C@@H]1C[C@H]2[C@@H]3CCC4=CC(=O)C=C[C@]4(C)[C@@]3(F)[C@@H](O)C[C@]2(C)[C@@]1(O)C(=O)CO [Dexamethasone] . 3080 ng/mL

----------
- experiment-description: ENVRES-PRE-002 ocular pharmacokinetics after intravitreal injection
- Format: in vivo, New Zealand White rabbits
- condition-parameters: male, New Zealand White, topical or ocular, 0.27 mg; aqueous humor, Group 4 (ENV-1R-0119-7-5, 6 implants, 270 μg/eye), rabbit
readout: Cmax
Answer by giving the amount and then stating its unit.

If you can, please state the reported Cmax value of C[C@@H]1C[C@H]2[C@@H]3CCC4=CC(=O)C=C[C@]4(C)[C@@]3(F)[C@@H](O)C[C@]2(C)[C@@]1(O)C(=O)CO . 5.9 ng/mL

----------
- experiment-description: ENVRES-PRE-002 ocular pharmacokinetics after intravitreal injection
- Assay type: in vivo, New Zealand White rabbits
- condition-parameters: male, New Zealand White, topical or ocular, 0.0407 mg; vitreous humor, Group 5 (ENV-1R-0119-33-7, 40.7 μg/eye), rabbit
readout: Cmax (ng/g)
Number only, in ng/g; omit the unit.

If you can, please state the reported Cmax value of CC1(C)O[C@@H]2C[C@H]3[C@@H]4C[C@H](F)C5=CC(=O)C=C[C@]5(C)[C@@]4(F)[C@@H](O)C[C@]3(C)[C@]2(C(=O)CO)O1 [fluocinolone acetonide] . 298

----------
- experiment-description: ENVRES-PRE-002 ocular pharmacokinetics after intravitreal injection
- Format: in vivo, New Zealand White rabbits
- condition-parameters: male, New Zealand White, topical or ocular, 0.27 mg; retina/choroid, Group 4 (ENV-1R-0119-7-5, 6 implants, 270 μg/eye), rabbit
readout: Cmax (ng/g)
Number only, in ng/g; omit the unit.

If you can, please state the reported Cmax value of C[C@@H]1C[C@H]2[C@@H]3CCC4=CC(=O)C=C[C@]4(C)[C@@]3(F)[C@@H](O)C[C@]2(C)[C@@]1(O)C(=O)CO . 28100
